Hey, just so you know, these numbers are from ChEMBL document CHEMBL5038615.

system: MCF7; experiment: Antiproliferative activity against human MCF7 cells assessed as inhibition of cell proliferation measured after 72 hrs by MTT assay; type: functional, cell-based; settings: MCF7, 72 h
Record form. Attribute: pIC50. Fill in for each entry.
Answers are plain numbers, as −log10 of the molar value.

The following molecules have reported results that may help.
CCc1ccc(NC(=O)C2CCN(C/C=C/c3ccccc3)CC2)cc1 : 4.70
O=C(Nc1cccc(Br)c1)C1CCN(C/C=C/c2ccccc2)CC1 : 4.94
O=C(Nc1ccc(F)c(Br)c1)C1CCN(C/C=C/c2ccccc2)CC1 : 4.87
N#Cc1ccc(NC(=O)C2CCN(C/C=C/c3ccccc3)CC2)cc1 : 4.35
O=C(Nc1ccccc1)C1CCN(C/C=C/c2ccccc2)CC1 : 4.22

Continue with the molecule presented below.
Problem: Find pIC50 for COc1cccc(NC(=O)C2CCN(C/C=C/c3ccccc3)CC2)c1 on MCF7 and write it down.
Result: 4.37

----------
tested on: MCF7; assay: Antiproliferative activity against human MCF7 cells assessed as inhibition of cell proliferation measured after 72 hrs by MTT assay; assay type: functional, cell-based; details: MCF7, 72 h
Record form. Attribute: IC50. Fill in for each entry.
Numbers only, in µM.

Provide the reported IC50 of each entry below, same order.
1. O=C(Nc1cc(-c2cccc(Br)c2)on1)C1CCN(C/C=C/c2ccccc2)CC1
2. O=C(Nc1ccccn1)C1CCN(C/C=C/c2ccccc2)CC1
3. O=C(Nc1nc2ccc(Br)cc2s1)C1CCN(C/C=C/c2ccccc2)CC1
4. CCCCc1ccc(NC(=O)C2CCN(C/C=C/c3ccccc3)CC2)cc1
5. O=C(Nc1cccc(C(F)(F)F)c1)C1CCN(C/C=C/c2ccccc2)CC1
6. CC(C)c1ccc(NC(=O)C2CCN(C/C=C/c3ccccc3)CC2)cc1
7. O=c1[nH]cc(F)c(=O)[nH]1
8. CCCCCc1ccc(NC(=O)C2CCN(C/C=C/c3ccccc3)CC2)cc1

Result:
1. 4.87
2. 67.2
3. 14.6
4. 5.87
5. 16.1
6. 9.1
7. 9.49
8. 3.74

----------
Record form. Attribute: pIC50. Fill in for each entry.
tested on: MCF7; assay: Antiproliferative activity against human MCF7 cells assessed as inhibition of cell proliferation measured after 72 hrs by MTT assay; type: functional, cell-based; conditions: MCF7, 72 h
Give bare numbers, as −log10 of the molar value.

The following compounds have reported results that may help.
O=C(Nc1nccs1)C1CCN(C/C=C/c2ccccc2)CC1 : 4.54
O=C(Nc1cccc(Cl)c1)C1CCN(C/C=C/c2ccccc2)CC1 : 4.79
Cc1ccc(NC(=O)C2CCN(C/C=C/c3ccccc3)CC2)cc1 : 4.52

Provide the reported pIC50 of each entry below, same order.
1. O=C(Nc1cccc2cccnc12)C1CCN(C/C=C/c2ccccc2)CC1
2. CN1CCN(c2ccc(NC(=O)C3CCN(C/C=C/c4ccccc4)CC3)cc2)CC1
3. O=C(Nc1cccc(F)c1)C1CCN(C/C=C/c2ccccc2)CC1
4. CCCc1ccc(NC(=O)C2CCN(C/C=C/c3ccccc3)CC2)cc1

Result:
1: 4.46; 2: 4.36; 3: 4.48; 4: 5.04

----------
Record form. Attribute: IC50. Fill in for each entry.
tested on: MCF7; assay: Antiproliferative activity against human MCF7 cells assessed as inhibition of cell proliferation measured after 72 hrs by MTT assay; format: functional, cell-based; conditions: MCF7, 72 h

The following molecules have reported results that may help.
COc1ccc(NC(=O)C2CCN(C/C=C/c3ccccc3)CC2)cc1 : > 100 µM
NS(=O)(=O)OC[C@@H]1CC(n2ccc3c(N[C@H]4CCc5ccccc54)ncnc32)C[C@@H]1O (single isomer, unassigned) : > 100 µM

Problem: Provide one value: measured IC50 of O=C(NCc1ccccc1)C1CCN(C/C=C/c2ccccc2)CC1
Result: > 100 µM
